Reference source: ChEMBL document CHEMBL2062499

tested on: Candida albicans; assay: Antifungal activity against Candida albicans MTCC 2827 at 0.5 mg/ml after 72 hrs by well plate method; format: functional; details: MTCC 2827, 72 h, read-out: DIZ
Kindly supply the reported zone of inhibition at 500 µg/mL values for the records listed here.
Please state the value followed by its unit.

// solved cases for zone of inhibition at 500 µg/mL follow
{"molecule": "COc1cc(C2CC(c3cc4ccccc4o3)=NN2C(=O)Nc2ccc(O)c(O)c2)ccc1O (stereo not given)", "obs value": "1 mm"}
{"molecule": "COc1cc(C2CC(c3cc4ccccc4o3)=NN2C(=O)Nc2ccc([N+](=O)[O-])cc2)ccc1O (stereo not given)", "obs value": "4 mm"}
{"molecule": "COc1cc(C2CC(c3cc4ccccc4o3)=NN2C(=O)Nc2ccc(Cl)cc2)ccc1O (stereo not given)", "obs value": "17 mm"}
{"molecule": "COc1cc(C2CC(c3cc4ccccc4o3)=NN2C(=O)Nc2ccccc2)ccc1O (stereo not given)", "obs value": "1 mm"}

Requested field: zone of inhibition at 500 µg/mL. Item: COc1cc(C2CC(c3cc4ccccc4o3)=NN2C(=O)Nc2cccc(O)c2)ccc1O (stereo not given)
1 mm

* * *

Hi there, I'd appreciate the recorded zone of inhibition at 500 µg/mL for every entry that follows.
tested on: Aspergillus flavus; assay: Antifungal activity against Aspergillus flavus MTCC 3306 at 0.5 mg/ml after 72 hrs by well plate method; type: functional; conditions: MTCC 3306, 72 h, read-out: DIZ
One number for each entry, in mm.

Below are worked cases with known answers.
{"molecule": "COc1cc(C2CC(c3cc4ccccc4o3)=NN2C(=O)Nc2ccc(O)cc2)ccc1O (centres undefined)", "system": "Aspergillus flavus", "unit name": "mm", "obs value": 2}
{"molecule": "COc1cc(C2CC(c3cc4ccccc4o3)=NN2C(=O)Nc2ccc(O)c(O)c2)ccc1O (centres undefined)", "system": "Aspergillus flavus", "unit name": "mm", "obs value": 2}
{"molecule": "COc1cc(C2CC(c3cc4ccccc4o3)=NN2C(=O)Nc2cccc(O)c2)ccc1O (centres undefined)", "system": "Aspergillus flavus", "unit name": "mm", "obs value": 1}
{"molecule": "COc1cc(C2CC(c3cc4ccccc4o3)=NN2C(=O)Nc2ccccc2)ccc1O (centres undefined)", "system": "Aspergillus flavus", "unit name": "mm", "obs value": 1}
{"molecule": "COc1cc(NC(=O)N2N=C(c3cc4ccccc4o3)CC2c2ccc(O)c(OC)c2)ccc1O (centres undefined)", "system": "Aspergillus flavus", "unit name": "mm", "obs value": 1}

Look up zone of inhibition at 500 µg/mL for the entries below, preserving their order.
1. COc1cc(C2CC(c3cc4ccccc4o3)=NN2C(=O)Nc2ccc([N+](=O)[O-])cc2)ccc1O (centres undefined)
2. COc1cc(C2CC(c3cc4ccccc4o3)=NN2C(=O)Nc2ccccc2O)ccc1O (centres undefined)
3. COc1cc(C2CC(c3cc4ccccc4o3)=NN2C(=O)Nc2ccc(C)cc2)ccc1O (centres undefined)
4. COc1cc(C2CC(c3cc4ccccc4o3)=NN2C(=O)Nc2ccc(Cl)cc2)ccc1O (centres undefined)

1. 3
2. 1
3. 2
4. 7

* * *

For each of the molecules below, state its zone of inhibition at 500 µg/mL.
system: Staphylococcus aureus; experiment: Antibacterial activity Staphylococcus aureus ATCC 25923 at 0.5 mg/ml after 24 hrs by well plate method; format: functional; details: ATCC 25923, 24 h, read-out: DIZ
One number for each entry, in mm.

Would you please look over these solved cases?
{"molecule": "COc1cc(C2CC(c3cc4ccccc4o3)=NN2C(=O)Nc2ccc(Br)cc2)ccc1O (stereo not given)", "system": "Staphylococcus aureus", "zone of inhibition at 500 µg/mL [mm]": 6}
{"molecule": "COc1cc(C2CC(c3cc4ccccc4o3)=NN2C(=O)Nc2ccc(Cl)cc2)ccc1O (stereo not given)", "system": "Staphylococcus aureus", "zone of inhibition at 500 µg/mL [mm]": 4}
{"molecule": "COc1cc(C2CC(c3cc4ccccc4o3)=NN2C(=O)Nc2ccc([N+](=O)[O-])cc2)ccc1O (stereo not given)", "system": "Staphylococcus aureus", "zone of inhibition at 500 µg/mL [mm]": 6}
{"molecule": "COc1cc(NC(=O)N2N=C(c3cc4ccccc4o3)CC2c2ccc(O)c(OC)c2)ccc1O (stereo not given)", "system": "Staphylococcus aureus", "zone of inhibition at 500 µg/mL [mm]": 2}
{"molecule": "COc1cc(C2CC(c3cc4ccccc4o3)=NN2C(=O)Nc2ccc(C)cc2)ccc1O (stereo not given)", "system": "Staphylococcus aureus", "zone of inhibition at 500 µg/mL [mm]": 3}
{"molecule": "COc1ccc(NC(=O)N2N=C(c3cc4ccccc4o3)CC2c2ccc(O)c(OC)c2)cc1 (stereo not given)", "system": "Staphylococcus aureus", "zone of inhibition at 500 µg/mL [mm]": 1}
{"molecule": "COc1cc(C2CC(c3cc4ccccc4o3)=NN2C(=O)Nc2cccc(O)c2)ccc1O (stereo not given)", "system": "Staphylococcus aureus", "zone of inhibition at 500 µg/mL [mm]": 1}
{"molecule": "COc1cc(C2CC(c3cc4ccccc4o3)=NN2C(=O)Cl)ccc1O (stereo not given)", "system": "Staphylococcus aureus", "zone of inhibition at 500 µg/mL [mm]": 1}
{"molecule": "COc1cc(C2CC(c3cc4ccccc4o3)=NN2C(=O)Nc2ccc(O)cc2)ccc1O (stereo not given)", "system": "Staphylococcus aureus", "zone of inhibition at 500 µg/mL [mm]": 1}
{"molecule": "COc1cc(C2CC(c3cc4ccccc4o3)=NN2C(=O)Nc2ccccc2)ccc1O (stereo not given)", "system": "Staphylococcus aureus", "zone of inhibition at 500 µg/mL [mm]": 2}

Take each entry in turn and give its zone of inhibition at 500 µg/mL.
1. CN[C@@H]1[C@H](O[C@H]2[C@H](O[C@H]3[C@H](O)[C@@H](O)[C@H](N=C(N)N)[C@@H](O)[C@@H]3N=C(N)N)O[C@@H](C)[C@]2(O)C=O)O[C@@H](CO)[C@H](O)[C@H]1O
2. COc1cc(C2CC(c3cc4ccccc4o3)=NN2)ccc1O (stereo not given)
3. COc1cc(C2CC(c3cc4ccccc4o3)=NN2C(=O)Nc2ccc(F)cc2)ccc1O (stereo not given)
4. COc1cc(C2CC(c3cc4ccccc4o3)=NN2C(=O)Nc2ccc(O)c(O)c2)ccc1O (stereo not given)

10
0
14
1

Quick one: zone of inhibition at 500 µg/mL for COc1cc(C2CC(c3cc4ccccc4o3)=NN2C(=O)Nc2ccccc2O)ccc1O (stereo not given) ?
1

* * *

system: Aspergillus flavus; assay: Antifungal activity against Aspergillus flavus MTCC 3306 at 0.5 mg/ml after 72 hrs by well plate method; assay type: functional; conditions: MTCC 3306, 72 h, read-out: DIZ
Hi there, I'd appreciate the recorded zone of inhibition at 500 µg/mL for every entry that follows.
Please format your answer as a value with the unit trailing.

{"compound": "COc1ccc(NC(=O)N2N=C(c3cc4ccccc4o3)CC2c2ccc(O)c(OC)c2)cc1 (stereo unspecified)", "zone of inhibition at 500 µg/mL": "3 mm"}
{"compound": "OC(Cn1cncn1)(Cn1cncn1)c1ccc(F)cc1F [FLUCONAZOLE]", "zone of inhibition at 500 µg/mL": "10 mm"}
{"compound": "COc1cc(C2CC(c3cc4ccccc4o3)=NN2)ccc1O (stereo unspecified)", "zone of inhibition at 500 µg/mL": "0 mm"}
{"compound": "COc1cc(C2CC(c3cc4ccccc4o3)=NN2C(=O)Nc2ccc(F)cc2)ccc1O (stereo unspecified)", "zone of inhibition at 500 µg/mL": "9 mm"}
{"compound": "COc1cc(C2CC(c3cc4ccccc4o3)=NN2C(=O)Nc2ccc(Br)cc2)ccc1O (stereo unspecified)", "zone of inhibition at 500 µg/mL": "4 mm"}

Switching to the query record.
Item COc1cc(C2CC(c3cc4ccccc4o3)=NN2C(=O)Cl)ccc1O (stereo unspecified) has what recorded zone of inhibition at 500 µg/mL?
1 mm

* * *

tested on: Pseudomonas aeruginosa; test: Antibacterial activity Pseudomonas aeruginosa ATCC 27853 at 1 mg/ml after 24 hrs by well plate method; type: functional; conditions: ATCC 27853, 24 h, read-out: DIZ
Lab note: anything with zone of inhibition at 1000 µg/mL at or over 3 mm counts as true; the rest go in false.

{"compound": "COc1cc(C2CC(c3cc4ccccc4o3)=NN2C(=O)Nc2ccc(Br)cc2)ccc1O (configuration not stated)", "category label": "true"}

Could you verify whether the entry COc1cc(C2CC(c3cc4ccccc4o3)=NN2C(=O)Nc2ccc(C)cc2)ccc1O (configuration not stated) shows zone of inhibition at 1000 µg/mL of no less than 3 mm?
true

hey, is zone of inhibition at 1000 µg/mL for this one >= 3 mm? COc1cc(C2CC(c3cc4ccccc4o3)=NN2C(=O)Nc2ccc(O)c(O)c2)ccc1O (configuration not stated)
true

Does zone of inhibition at 1000 µg/mL meet or surpass 3 mm for COc1cc(C2CC(c3cc4ccccc4o3)=NN2C(=O)Nc2ccc(Cl)cc2)ccc1O (configuration not stated) ?
true

Form field: zone of inhibition at 1000 µg/mL at least 3 mm? Entry: COc1cc(C2CC(c3cc4ccccc4o3)=NN2C(=O)Cl)ccc1O (configuration not stated)
false

Form field: zone of inhibition at 1000 µg/mL at least 3 mm? Entry: COc1cc(C2CC(c3cc4ccccc4o3)=NN2C(=O)Nc2ccccc2)ccc1O (configuration not stated)
false
